Test: A CellTox Green Cytotoxicity Assay to monitor cytotoxicity in HepG2 cells - 8 hour (AID 1224890); note: nearly all actives have a fitted effect of over 45% in size
Conditions: CellTox Green fluorescence; series mostly up to 76.8 µM
Excerpt: National Center for Advancing Translational Sciences [NCATS] NIH Chemical Genomics Center [NCGC] U.S. Environmental Protection Agency [EPA] National Institutes of Environmental Health Sciences [NIEHS] National Toxicology Program [NTP] Cell-based models are critical for drug discovery. […] Viable cells produce no appreciable increases in fluorescence. Therefore, the fluorescence signal produced by the binding interaction with dead cell DNA is proportional to cytotoxicity. […]
Records with an inconclusive call do not appear. Calls of active or inactive are those of the source. Calls come from the whole dose curve; as a rule, active = well fitted activation curve with a large enough effect in the repeat runs; inconclusive = weak or mixed curves; inactive = flat fitted curve, though single readings scatter.
// one of true (1) for active, false (0) for inactive, no free text

O=C1CCC(=O)N1 = false (0)
CCN(CC)c1ccc(N=Nc2ccccc2)cc1 = false (0)
CCC(O)CO (centres undefined) = false (0)
Cc1ccc(C2OC[C@@H]3OC(c4ccc(C)cc4)O[C@H]([C@H](O)CO)[C@@H]3O2)cc1 (some centres undefined) = false (0)
Cc1c[nH]c(=O)[nH]c1=O = false (0)
Cc1cc(Br)ccc1NC(=O)CCl = false (0)
CCCCCN=C(N)N/N=C/c1c[nH]c2ccc(OC)cc12 = true (1)
O=c1cc[nH]cc1 = false (0)
CCCCCCCC/C=C\CCCCCCCC(=O)N(CCO)CCO = false (0)
COc1ccc(OC)c(N=Nc2c(O)ccc3ccccc23)c1 = false (0)

Prompt line: For this compound, state the assay outcome: "CC(c1cc(C(C)(C)C)cc(C(C)(C)C)c1O)c1cc(C(C)(C)C)cc(C(C)(C)C)c1O"
Response line: false (0)

Prompt line: Check the results log: what was the call for "CCCCC/C=C\C=C\C(=O)OCC" ?
Response line: false (0)

Prompt line: Query: recorded result category for "CCCCCCCCSCc1cc(C)c(O)c(CSCCCCCCCC)c1" in this test
Response line: false (0)

Prompt line: Kindly provide the recorded test outcome for the following compound: "CCOC(=O)[C@H](O)[C@@H](O)C(=O)OCC"
Response line: false (0)

Prompt line: Just curious, what result did "CN1CCN(C)CC1" get here?
Response line: false (0)

Prompt line: Record lookup: outcome of this test for "Nc1ccc(Oc2cccc(Oc3ccc(N)cc3)c2)cc1" ?
Response line: false (0)

Prompt line: Please let me know the test result on file for "O=C1OC2(c3ccccc31)c1ccc(O)c(Br)c1Oc1c2ccc(O)c1Br" .
Response line: true (1)

* * *

assay: qHTS assay to identify small molecule antagonists of the androgen receptor (AR) signaling pathway using the MDA cell line in the presence of 0.5 nM R1881 - cell viability counter screen (AID 1259242); settings: MDA-kb2 viability, CellTiter-Fluor protease fluorescence, 16 h; series mostly up to 92.4 µM; note: nearly all actives have a fitted effect of over 45% in size
Records with an inconclusive call do not appear. The source made the active and inactive calls. Calls follow the shape of the dose curve; as a rule, active = well fitted cell-killing curve with a large enough effect in the repeat runs; inconclusive = weak or mixed curves, or effect the other way; inactive = flat fitted curve, though single readings scatter.
Permitted responses: true = active, false = inactive

Prompt line: In this assay, the call recorded for "C=Cc1ccc(O)c(OC)c1" was what?
Response line: false

Prompt line: I'd appreciate the recorded outcome for "O=C1C=CC(=O)N1c1cccc(N2C(=O)C=CC2=O)c1" from this test.
Response line: true

Prompt line: What call does the record list for NC(=O)C1CO1 (stereo not given) ?
Response line: false

Prompt line: Tell me the assay call for "N#Cc1ccc(C/C(=N/NC(=O)Nc2ccc(OC(F)(F)F)cc2)c2cccc(C(F)(F)F)c2)cc1" please.
Response line: false

* * *

assay: qHTS assay for small molecules that induce genotoxicity in human embryonic kidney cells expressing luciferase-tagged ATAD5 - cell viability (AID 651634); conditions: HEK293T ATAD5-luc cells viability, CellTiter-Fluor, 15.5 h; series mostly up to 83.3 µM; note: nearly all actives have a fitted effect of over 25% in size
Results filed as inconclusive are left out. Activity calls are given as the source filed them. Calls come from the whole dose curve.
Please answer using one outcome listed in true for active, false for inactive

Example cases with answers are listed next.
N#Cc1nc(Cl)c(Cl)c(Cl)c1Cl = true
CNC(=O)OCc1cccc(COC(=O)NC)n1 = false

For the next question, use this molecule.
Prompt line: Any idea what this test logged for "O=C1CCCCCCCCCCCCCC1" ?
Response line: false

* * *

molecular target: Peroxisome proliferator-activated receptor delta (Homo sapiens) (UniProt Q03181); test: qHTS assay to identify small molecule antagonists of the peroxisome proliferator-activated receptor delta (PPARd) signaling pathway (AID 743215); details: HEK293H PPARd-UAS-bla, beta-lactamase FRET ratio, antagonist, 17 h; series mostly up to 62 µM;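 note: cells stimulated with agonist L165041 at 300 nM final during compound exposure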
Sequence (Q03181 whole entry, looked up): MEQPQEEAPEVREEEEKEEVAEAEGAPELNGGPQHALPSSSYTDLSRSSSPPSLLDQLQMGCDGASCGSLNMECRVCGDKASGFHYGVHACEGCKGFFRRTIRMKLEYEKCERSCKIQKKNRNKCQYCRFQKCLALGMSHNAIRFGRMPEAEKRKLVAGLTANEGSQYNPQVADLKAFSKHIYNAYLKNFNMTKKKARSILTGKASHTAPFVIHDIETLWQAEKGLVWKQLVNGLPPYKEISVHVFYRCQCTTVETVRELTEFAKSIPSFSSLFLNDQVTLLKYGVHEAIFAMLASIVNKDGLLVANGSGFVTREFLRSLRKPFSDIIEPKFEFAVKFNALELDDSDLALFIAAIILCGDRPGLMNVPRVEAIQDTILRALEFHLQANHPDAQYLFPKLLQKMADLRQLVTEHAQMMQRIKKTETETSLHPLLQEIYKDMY
Results filed as inconclusive are left out. The source made the active and inactive calls. Calls come from the whole dose curve; as a rule, active = well fitted inhibition curve with a large enough effect in the signal ratio in the repeat runs (not every such curve was filed as active); inconclusive = weak or mixed curves, or effect the other way; inactive = no such curve, though single readings can be large or run the other way; the % refers to the signal ratio.
// classify into active, inactive

Take a look at these entries with their results.
CC(O)(c1ccc(Cl)cc1)c1ccc(Cl)cc1 = inactive
O=C1CCCCCCCCCCCCCC1 = inactive
CCCCCCCCOC(=O)c1cc(O)c(O)c(O)c1 = active
CN[C@H]1CC[C@@H](c2ccc(Cl)c(Cl)c2)c2ccc(S(N)(=O)=O)cc21 = active

Continue with the next molecule.
Prompt line: Short answer needed: outcome of this test for "CC(=O)[C@]1(O)Cc2c(O)c3c(c(O)c2[C@@H](O[C@H]2C[C@H](N)[C@H](O)[C@H](C)O2)C1)C(=O)c1ccccc1C3=O" ?
Response line: active

* * *

Assay: qHTS RealTime-Glo MT Cell Viability Assay in HepG2 cells - 32 hour (AID 1224877); note: % is set by controls: 0 for no effect and ±100 for the full control effect; nearly all actives have a fitted effect of over 55% in size
Details: RealTime-Glo luminescence; series mostly up to 76.8 µM
Description: U.S. Tox21 Program National Center for Advancing Translational Sciences [NCATS] NIH Chemical Genomics Center [NCGC] U.S. Environmental Protection Agency [EPA] National Institutes of Environmental Health Sciences [NIEHS] National Toxicology Program [NTP] U.S. Food and Drug Administration [FDA] Tox21 Assay Overview: Measure of cell viability is critical in the cell-base assay. Analysis of cell viability is necessary for the characterization of cell responses to cytotoxic drugs and environmental stress. […]
Records with an inconclusive call do not appear. Active and inactive are the calls of the source. Calls follow the shape of the dose curve; as a rule, active = well fitted cell-killing curve with a large enough effect in the repeat runs; inconclusive = weak or mixed curves; inactive = flat fitted curve, though single readings scatter.
Measure: outcome

SC1CCCCC1 = inactive
CCOc1ccc([N+](=O)[O-])cc1 = inactive
Nc1cc([N+](=O)[O-])ccc1Cl = inactive

* * *

Assay: A CellTox Green Cytotoxicity Assay to monitor cytotoxicity in HepG2 cells - 8 hour (AID 1224890); note: nearly all actives have a fitted effect of over 45% in size
Settings: CellTox Green fluorescence; series mostly up to 76.8 µM
Description: National Center for Advancing Translational Sciences [NCATS] NIH Chemical Genomics Center [NCGC] U.S. Environmental Protection Agency [EPA] National Institutes of Environmental Health Sciences [NIEHS] National Toxicology Program [NTP] Cell-based models are critical for drug discovery. […] Viable cells produce no appreciable increases in fluorescence. Therefore, the fluorescence signal produced by the binding interaction with dead cell DNA is proportional to cytotoxicity. […]
Results filed as inconclusive are left out. The source made the active and inactive calls. Calls follow the shape of the dose curve; as a rule, active = well fitted activation curve with a large enough effect in the repeat runs; inconclusive = weak or mixed curves; inactive = flat fitted curve, though single readings scatter.
Mark one answer only. Choices: active, inactive

[Cl][Eu]([Cl])[Cl] = inactive
O=C(c1ccccc1)c1ccc(Cl)cc1 = inactive
COCCC(=O)OC = inactive
C/C(=C\c1ccc(C(=O)O)cc1)c1ccc2c(c1)C(C)(C)CCC2(C)C = inactive

Prompt line: Per the assay record, what outcome was assigned to "Clc1cccc(Cl)n1" ?
Response line: inactive

Prompt line: Which outcome was entered for the compound "O=C1CCC/C=C\CCCCCCCCCC1" in this test?
Response line: inactive

Prompt line: Query: recorded result category for "CCC(=O)OC/C=C(\C)CCC=C(C)C" in this test
Response line: inactive

Prompt line: Given O=C1OC(O)C(C(Cl)Cl)=C1Cl (centres undefined) , state the outcome it received in this test.
Response line: inactive

Prompt line: Per the assay record, what outcome was assigned to "CCCCCCCCCCCC(=O)Cl" ?
Response line: inactive

Prompt line: Which result was noted for this compound in the test: "CCNc1nc(NC(C)(C)C)nc(OC)n1"
Response line: inactive

Prompt line: What is the recorded call for this compound in the test? "N#Cc1ccc(C/C(=N/NC(=O)Nc2ccc(OC(F)(F)F)cc2)c2cccc(C(F)(F)F)c2)cc1"
Response line: inactive

Prompt line: // return assay outcome for "C/C(=N\[Si](C)(C)C)O[Si](C)(C)C"
Response line: inactive

Prompt line: Test call for this compound, please: "C=CC(=O)O[C@H]1C[C@@H]2CC[C@@]1(C)C2(C)C"
Response line: inactive

Prompt line: What outcome does the record of this test show for "O=[N+]([O-])c1ccc(CO)cc1" ?
Response line: inactive

* * *

Target: Androgen receptor (Homo sapiens)
Experiment: qHTS assay to identify small molecule agonists of the androgen receptor (AR) signaling pathway in the presence of an antagonist (AID 1259381); note: % is set by controls: 0 for no effect and ±100 for the full control effect; nearly all actives have a fitted effect of over 15% in size
Conditions: MDA-kb2 MMTV-luciferase, AR agonist + nilutamide, 16 h; series mostly up to 92.4 µM
From the text: National Center for Advancing Translational Sciences [NCATS] NIH Chemical Genomics Center [NCGC] U.S. Environmental Protection Agency [EPA] National Institutes of Environmental Health Sciences [NIEHS] National Toxicology Program [NTP] Assay overview: Androgen receptor (AR) is an important member of nuclear receptor family. Its signaling plays a critical role in AR-dependent prostate cancer and other androgen related diseases. […]
The source made the active and inactive calls. The call rests on the fitted dose curve.
Measure: activation

CC(C)(C)c1ccc(OC2CCCCC2O)cc1 (stereo not drawn) = inactive
CCc1cccc(C)c1N(C(=O)CS(=O)(=O)O)C(C)COC (stereo not drawn) = inactive
CC(C)(c1ccc(Oc2ccc(N)cc2)cc1)c1ccc(Oc2ccc(N)cc2)cc1 = inactive
